Molecular target: menin (Homo sapiens, UniProt O00255, T541A)
Construct: Menin (a.a. 1-610-6×his tag)
Sequence (O00255 with tags, fused parts or gaps T541A): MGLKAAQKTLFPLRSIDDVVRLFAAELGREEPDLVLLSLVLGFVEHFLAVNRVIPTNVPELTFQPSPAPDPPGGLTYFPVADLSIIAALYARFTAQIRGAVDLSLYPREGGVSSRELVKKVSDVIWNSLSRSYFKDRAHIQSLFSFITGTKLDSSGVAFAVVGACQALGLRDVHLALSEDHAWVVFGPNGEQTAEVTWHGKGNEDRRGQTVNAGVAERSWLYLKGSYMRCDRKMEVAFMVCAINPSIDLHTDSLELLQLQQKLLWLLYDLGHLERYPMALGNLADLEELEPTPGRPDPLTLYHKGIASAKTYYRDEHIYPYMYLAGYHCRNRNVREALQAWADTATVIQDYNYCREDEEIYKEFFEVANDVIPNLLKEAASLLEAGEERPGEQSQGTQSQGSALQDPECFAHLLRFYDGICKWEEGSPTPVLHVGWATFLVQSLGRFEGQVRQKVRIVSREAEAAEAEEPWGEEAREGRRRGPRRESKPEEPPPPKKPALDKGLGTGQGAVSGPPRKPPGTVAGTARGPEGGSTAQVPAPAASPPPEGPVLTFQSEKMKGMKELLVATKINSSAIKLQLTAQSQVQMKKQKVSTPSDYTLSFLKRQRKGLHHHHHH
Experiment: Menin/MLL homogenous time-resolved fluorescence (HTRF) assay
Format: binding
Conditions: location 2; read-out: (2) location 2 Menin HTRF assay (IC50 (nM))
Description: 2) Menin/MLL Homogenous Time-Resolved Fluorescence (HTRF) Assay […] Compound potencies were determined by first calculating % inhibition at each compound concentration according to equation 1: % inhibition=((HC−LC)−(HTRF^compound−LC))/(HC−LC))*100 (Eqn 1) […]
Quantity name: IC50 (nM)

Please review the entries below; each comes with its answer.
Compound	Unit info	Value
CNC(=O)c1ccc(N[C@H]2CC[C@]3(CCN(c4ncnc5sc(CC(F)(F)F)cc45)C3)C2)cc1 (stereo in doubt)	nM	5.7
CC(CN1CCN(S(C)(=O)=O)CC1)NC(=O)c1ccc(NC2CC3(CCN(c4ncnc5sc(CC(F)(F)F)cc45)C3)C2)cc1 (mixture of isomers)	nM	13.1
O=S(=O)(NC1CC2(CCN(c3ncnc4sc(CC(F)(F)F)cc34)C2)C1)c1ccccc1 (centres unmarked) [Compound 24]	nM	419
CS(=O)(=O)N1CCC(C(N)=O)(c2ccc(NC3CC4(CCN(c5ncnc6sc(CC(F)(F)F)cc56)C4)C3)cc2)CC1 (centres unmarked)	nM	30.6
N#CCc1ccc(NC2CC3(CCN(c4nc(N)nc5sc(CC(F)(F)F)cc45)C3)C2)cc1 (mixture of isomers) [Compound 377]	nM	7.5
FC(F)(F)Cc1cc2c(N3CCC4(CCC(NCc5ccccc5)CC4)C3)ncnc2s1 (single isomer, unassigned) [Compound 2]	nM	84.5
O=C1OCCN1Cc1ccc(NC2CC3(CCN(c4ncnc5sc(CC(F)(F)F)cc45)C3)C2)cc1 (mixture of isomers)	nM	9.1
Cn1cc(NC2CCC3(C2)CN(c2ncnc4sc(CC(F)(F)F)cc24)C3)cn1 (centres unmarked)	nM	1750
CN1CCC(COc2cc(NC3CC4(CCN(c5ncnc6sc(CC(F)(F)F)cc56)C4)C3)ccc2C#N)CC1 (mixture of isomers)	nM	114
O=c1[nH]c2cc(NC3CC4(CCN(c5ncnc6sc(CC(F)(F)F)cc56)C4)C3)ccc2o1 (mixture of isomers)	nM	5.6

A = CNc1nc(N2CC3(CCC(NCc4ccc5[nH]c(=O)[nH]c5c4)C3)C2)c2cc(CC(F)(F)F)sc2n1 (centres unmarked)
B = COC1CCN(C(=O)c2ccc(NC3CC4(CCN(c5ncnc6sc(CC(F)(F)F)cc56)C4)C3)cc2)CC1 (single isomer, unassigned) [Compound 183]
Exam item: Recorded IC50 values differ for A and B ; which one is higher? Mark your selection by writing its label.
Marked response: B

a = N#Cc1cccc(S(=O)(=O)NC2CC3(CCN(c4ncnc5sc(CC(F)(F)F)cc45)C3)C2)c1 (mixture of isomers)
b = Fc1ccccc1NC1CC2(CCN(c3ncnc4sc(CC(F)(F)F)cc34)C2)C1 (mixture of isomers)
Exam item: For a and b , which recorded IC50 is lower? Bench note: the answer is the label of the chosen record.
Marked response: b
(b: 155 nM, a: 473 nM)

====

Target: menin (Homo sapiens, UniProt O00255, T541A)
Construct: Menin (a.a. 1-610-6×his tag)
Assay: Menin/MLL homogenous time-resolved fluorescence (HTRF) assay
Type: binding
Settings: location 2; read-out: (2) location 2 Menin HTRF assay (IC50 (nM))
Quantity name: IC50 (nM)

Molecule	Tested on	Value
NC(=O)Cn1c(=O)[nH]c2cc(NC3CC4(CCN(c5ncnc6sc(CC(F)(F)F)cc56)C4)C3)ccc21 (single isomer, unassigned) [Compound 359]	menin (Homo sapiens, UniProt O00255, T541A)	16.2
CN(C(=O)c1ccc(NC2CC3(CCN(c4ncnc5sc(CC(F)(F)F)cc45)C3)C2)cc1)S(C)(=O)=O (single isomer, unassigned) [Compound 364]	menin (Homo sapiens, UniProt O00255, T541A)	1.3
CN1CCC(c2cc(NC3CC4(CCN(c5ncnc6sc(CC(F)(F)F)cc56)C4)C3)ccc2C#N)CC1 (racemic) [Compound 78]	menin (Homo sapiens, UniProt O00255, T541A)	2.9
CS(=O)(=O)N1CCN(CCn2c(=O)oc3ccc(CNC4CC5(CCN(c6ncnc7sc(CC(F)(F)F)cc67)C5)C4)cc32)CC1 (mixture of isomers) [Compound 349]	menin (Homo sapiens, UniProt O00255, T541A)	19.3

P = CNC(=O)c1cc(F)c(NC2CC3(CCN(c4ncnc5sc(CC(F)(F)F)cc45)C3)C2)c(F)c1 (single isomer, unassigned) [Compound 229]
Q = CN1CCC(c2cc(NC3CC4(CCN(c5ncnc6sc(CC(F)(F)F)cc56)C4)C3)ccc2C(=O)N2CCOCC2)CC1 (single isomer, unassigned) [Compound 232]
Exam item: Sorting ascending by IC50, which comes first: P or Q ? Please respond with the label that marks your chosen entry.
Marked response: P
